Reference for the values: the supplement of paper PMC4466140

Biological target: SpHof1-2
Assay: SPOT peptide array binding signal intensity (averaged, normalized) (arbitrary units (background-subtracted, floor 0; scale differs between SH3 domains)); higher = stronger binding of the SH3 domain to the peptide
property-measured: SPOT peptide array binding signal intensity

Q. // returns reported SPOT peptide array binding signal intensity for input YSRKKLPVVLSKMTL
A. 27.2

Q. Now the binder TKPTPPPKPSHLKPK
A. ≤ 0

Q. Now the binder KKAPPPVVKPKPRNF
A. 13.2
